Let's look at some molecules and their measured pKi.
- MEASURED TARGET: wild-type HCV NS3/4A protease (GT1a) (Hepatitis C virus genotype 1a, UniProt P27958, C1185S)
- Construct: His-tag (cleaved yes); made in house; host or cells: Escherichia coli BL21(DE3), PET28a vector
- Sequence (P27958 1027-1208 C1185S): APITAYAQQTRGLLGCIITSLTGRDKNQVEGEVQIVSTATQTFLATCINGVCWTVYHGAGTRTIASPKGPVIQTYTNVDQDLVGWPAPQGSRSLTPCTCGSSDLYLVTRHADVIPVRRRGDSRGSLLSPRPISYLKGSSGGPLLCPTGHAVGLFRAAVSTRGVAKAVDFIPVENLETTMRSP
- METHOD NOTES: biochemical
- Assay type: biochemical
pKi: −log10 of the molar value.
QUANTITY KIND: pKi

>>> value_measured("COc1ccc2nc(C)c(O[C@@H]3C[C@H]4C(=O)N[C@]5(C(=O)NS(=O)(=O)C6(C)CC6)C[C@H]5/C=C\\CCCCC[C@H](NC(=O)O[C@H](C)C(F)(F)F)C(=O)N4C3)nc2c1")
8.96
>>> value_measured("COC(=O)N[C@H](C(=O)N[C@H]1CCCCC/C=C\\[C@@H]2C[C@@]2(C(=O)NS(=O)(=O)C2(C)CC2)NC(=O)[C@@H]2C[C@@H](Oc3nc4cc(OC)ccc4nc3C)CN2C1=O)C(C)C")
7.89
>>> value_measured("COc1ccc2nc(C)c(O[C@@H]3C[C@H]4C(=O)N[C@]5(C(=O)NS(=O)(=O)C6(C)CC6)C[C@H]5/C=C\\CCCCC[C@H](NC(=O)O[C@@H](C)C(C)C)C(=O)N4C3)nc2c1")
8.72
>>> value_measured("COc1ccc2nc(C(F)(F)F)c(O[C@@H]3C[C@H]4C(=O)N[C@]5(C(=O)NS(=O)(=O)C6(C)CC6)C[C@H]5/C=C\\CCCCC[C@H](NC(=O)OC5(C)CC5)C(=O)N4C3)nc2c1")
7.94
>>> value_measured("COc1ccc2nc(C(F)(F)F)c(O[C@@H]3C[C@H]4C(=O)N[C@]5(C(=O)NS(=O)(=O)C6(C)CC6)C[C@H]5/C=C\\CCCCC[C@H](NC(=O)OC5CCC5)C(=O)N4C3)nc2c1")
8.07
>>> value_measured("COc1ccc2nc(C(F)(F)F)c(O[C@@H]3C[C@H]4C(=O)N[C@]5(C(=O)NS(=O)(=O)C6(C)CC6)C[C@H]5/C=C\\CCCCC[C@H](NC(=O)OC(C)(C)C(F)(F)F)C(=O)N4C3)nc2c1")
8.44
>>> value_measured("COc1ccc2nc(C)c(O[C@@H]3C[C@H]4C(=O)N[C@]5(C(=O)NS(=O)(=O)C6(C)CC6)C[C@H]5/C=C\\CCCCC[C@H](NC(=O)OCC5(C(F)(F)F)CC5)C(=O)N4C3)nc2c1")
9.05
>>> value_measured("COc1ccc2nc(C)c(O[C@@H]3C[C@H]4C(=O)N[C@]5(C(=O)NS(=O)(=O)C6(C)CC6)C[C@H]5/C=C\\CCCCC[C@H](NC(=O)[C@@H](NC(C)=O)C(C)(C)C)C(=O)N4C3)nc2c1")
7.62
>>> value_measured("COc1ccc2nc(C(F)(F)F)c(O[C@@H]3C[C@H]4C(=O)N[C@]5(C(=O)NS(=O)(=O)C6(C)CC6)C[C@H]5/C=C\\CCCCC[C@H](NC(=O)O[C@@H](C)C(C)C)C(=O)N4C3)nc2c1")
8.21
